Parameter IC50: see the listing below.
- target.or.system: hROMK (hKir1.1) (Homo sapiens)
- Construct: expressed in transfected cells
- Sequence (P48048 1-391): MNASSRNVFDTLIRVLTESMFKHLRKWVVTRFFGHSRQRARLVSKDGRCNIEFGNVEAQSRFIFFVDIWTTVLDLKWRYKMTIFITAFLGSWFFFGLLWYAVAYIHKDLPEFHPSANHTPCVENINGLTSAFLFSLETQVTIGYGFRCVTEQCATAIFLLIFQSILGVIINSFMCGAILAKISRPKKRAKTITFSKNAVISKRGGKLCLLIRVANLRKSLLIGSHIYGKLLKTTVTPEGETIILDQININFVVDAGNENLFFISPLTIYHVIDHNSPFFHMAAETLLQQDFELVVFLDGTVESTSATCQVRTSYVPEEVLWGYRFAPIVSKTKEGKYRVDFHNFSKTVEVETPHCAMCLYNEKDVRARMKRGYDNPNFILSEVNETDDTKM
- test.details: Thallium Flux Assay
- Format: cell-based
- measurement.parameters: Thallium Flux IC50
Write it as a number; the unit nM goes unstated.

Guide cases for IC50, answers given:
N#Cc1c(F)ccc([C@@H]2CN3CCN(C(=O)Cc4cnc(-n5cnnn5)nc4)C[C@H]3CO2)c1Cl [Example 136] = 40
Cc1nc(-n2cnnn2)nc(C)c1CC(=O)N1CCN2C[C@H](c3ccc(F)c(C#N)c3C)OC[C@H]2C1 [Example 151] = 300
Cc1nc(-n2cnnn2)ncc1CC(=O)N1CCN2C[C@H](c3ccc(F)c(C#N)c3C)OC[C@H]2C1 [Example 119] = 330
Cc1c(C2CN3CCN(C(=O)Cc4ccc(-n5cnnn5)nc4)CC3CCO2)ccc2c1COC2=O (single isomer, unassigned) [Example 163] = 210
COc1cc([C@@H]2CN3CCN(C(=O)Cc4ccc(-n5cnnn5)nc4)C[C@H]3CO2)cc(F)c1C#N [Example 114] = 110

Q: Give reported IC50 for Cc1c([C@H]2CN3CCN(C(=O)Cc4ccc(-n5cnnn5)nc4)C[C@H]3CO2)ccc2c1COC2=O [Example 21] (hROMK (hKir1.1) (Homo sapiens))
A: 100

Q: Give reported IC50 for Cc1c([C@@H]2CN3CCN(C(=O)Cc4ccc(-n5cnnn5)nc4)C[C@@H]3CO2)ccc(F)c1C#N [Example 102] (hROMK (hKir1.1) (Homo sapiens))
A: 150

###

- target.or.system: hROMK (hKir1.1) (Homo sapiens, UniProt P48048)
- Construct: expressed in transfected cells
- test.details: Thallium Flux Assay
- Type: cell-based
- measurement.parameters: HEK293 cells stably expressing hROMK (hKir1.1), FLIPR-Tetra; read-out: Thallium Flux IC50
parameter: IC50 (nM)
Write it as a number; the unit nM goes unstated.

Guide cases for IC50, answers given:
COc1c([C@H]2CN3CCN(C(=O)Cc4ccc(-n5cnnn5)cn4)C[C@H]3CO2)ccc(F)c1C#N [Example 63] = 180
COc1cc(F)c([C@@H]2CN3CCN(C(=O)Cc4ccc(-n5cnnn5)nc4)C[C@H]3CO2)cc1C#N [Example 57] = 210
Cc1c([C@@H]2CN3CCN(C(=O)Cc4cnc(-n5cnnn5)c(F)c4)C[C@@H]3CO2)ccc(F)c1C#N [Example 146] = 90
O=C1OCc2cc([C@H]3CN4CCN(C(=O)Cc5ccc(-n6cnnn6)cn5)C[C@H]4CO3)ccc21 [Example 28] = 180
Cc1c(C#N)cncc1[C@@H]1CN2CCN(C(=O)Cc3ccc(-n4cnnn4)nc3)C[C@H]2CO1 [Example 74] = 390
Cc1c([C@H]2CN3CCN(C(=O)Cc4ccc(-n5cnnn5)cn4)C[C@@H]3CO2)ccc(F)c1C#N [Example 31] = 160

Now take the following compound into account.
Q: Return IC50 for the following compound: Cc1c([C@@H]2CN3CCN(C(=O)Cc4cnc(-n5cnnn5)nc4)C[C@@H]3CO2)ccc2c1COC2=O [Example 122]
A: 390
